# System: UniProt O43614
# Sequence (O43614 whole entry): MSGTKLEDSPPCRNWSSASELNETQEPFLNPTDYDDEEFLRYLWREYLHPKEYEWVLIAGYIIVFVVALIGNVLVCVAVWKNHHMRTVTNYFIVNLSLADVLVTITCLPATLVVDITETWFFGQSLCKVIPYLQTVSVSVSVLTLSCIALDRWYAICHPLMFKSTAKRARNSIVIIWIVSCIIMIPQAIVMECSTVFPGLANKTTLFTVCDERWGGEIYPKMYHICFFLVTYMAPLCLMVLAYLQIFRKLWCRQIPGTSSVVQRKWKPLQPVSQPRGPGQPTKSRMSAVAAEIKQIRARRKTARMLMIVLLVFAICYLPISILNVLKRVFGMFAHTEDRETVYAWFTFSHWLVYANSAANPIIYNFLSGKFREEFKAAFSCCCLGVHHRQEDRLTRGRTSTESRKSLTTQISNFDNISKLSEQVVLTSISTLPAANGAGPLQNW
# Procedure Details: IPOne (IP-1) assay in CHO cells expressing human OX2R
# Format: cell-based
# Test Parameters: CHO, percentage of mean max effect of a reference compound at 1 uM (100% activity by comparison to Orexin A), human OX2R; read-out: Emax (%)
Readings of Emax for the listed compounds
Measurement Type: Emax (%)

compound="CC(C)OC(=O)N1[C@H](C)C[C@H](NS(=O)(=O)C(F)F)[C@@H]1CO[C@H]1CC[C@@]2(c3ncc(Cl)cn3)C[C@H]2C1 (single isomer, unassigned)" observed_result=100
compound=COC(=O)N1[C@H](C)C[C@H](NS(C)(=O)=O)[C@@H]1CO[C@H]1CC[C@@]2(c3ncc(F)cn3)C[C@H]2C1 observed_result=101
compound="COC(=O)N1[C@H](C)C[C@H](NS(=O)(=O)CF)[C@@H]1CO[C@H]1CC[C@@]2(c3ncc(Br)cn3)C[C@H]2C1 (single isomer, unassigned)" observed_result=102
compound="COC(=O)N1[C@H](C)C[C@H](NS(C)(=O)=O)[C@@H]1COC1CCC2(c3ncc(F)c(OC)n3)CC2C1 (stereo partly drawn)" observed_result=101
compound="CC(C)OC(=O)N1[C@H](C)C[C@H](NS(=O)(=O)C(F)F)[C@@H]1COC1CCC2(c3ncc(Cl)cn3)CC2C1 (stereo partly drawn)" observed_result=102
compound=CC(C)OC(=O)N1[C@H](C)C[C@H](NS(C)(=O)=O)[C@@H]1CO[C@H]1CC[C@@]2(c3ncc(F)cn3)C[C@H]2C1 observed_result=103
